# System under test: NMDAR (1A/2B) (Homo sapiens, UniProt Q05586+Q13224)
# Sequence (Q13224 27-1484, other chains not shown): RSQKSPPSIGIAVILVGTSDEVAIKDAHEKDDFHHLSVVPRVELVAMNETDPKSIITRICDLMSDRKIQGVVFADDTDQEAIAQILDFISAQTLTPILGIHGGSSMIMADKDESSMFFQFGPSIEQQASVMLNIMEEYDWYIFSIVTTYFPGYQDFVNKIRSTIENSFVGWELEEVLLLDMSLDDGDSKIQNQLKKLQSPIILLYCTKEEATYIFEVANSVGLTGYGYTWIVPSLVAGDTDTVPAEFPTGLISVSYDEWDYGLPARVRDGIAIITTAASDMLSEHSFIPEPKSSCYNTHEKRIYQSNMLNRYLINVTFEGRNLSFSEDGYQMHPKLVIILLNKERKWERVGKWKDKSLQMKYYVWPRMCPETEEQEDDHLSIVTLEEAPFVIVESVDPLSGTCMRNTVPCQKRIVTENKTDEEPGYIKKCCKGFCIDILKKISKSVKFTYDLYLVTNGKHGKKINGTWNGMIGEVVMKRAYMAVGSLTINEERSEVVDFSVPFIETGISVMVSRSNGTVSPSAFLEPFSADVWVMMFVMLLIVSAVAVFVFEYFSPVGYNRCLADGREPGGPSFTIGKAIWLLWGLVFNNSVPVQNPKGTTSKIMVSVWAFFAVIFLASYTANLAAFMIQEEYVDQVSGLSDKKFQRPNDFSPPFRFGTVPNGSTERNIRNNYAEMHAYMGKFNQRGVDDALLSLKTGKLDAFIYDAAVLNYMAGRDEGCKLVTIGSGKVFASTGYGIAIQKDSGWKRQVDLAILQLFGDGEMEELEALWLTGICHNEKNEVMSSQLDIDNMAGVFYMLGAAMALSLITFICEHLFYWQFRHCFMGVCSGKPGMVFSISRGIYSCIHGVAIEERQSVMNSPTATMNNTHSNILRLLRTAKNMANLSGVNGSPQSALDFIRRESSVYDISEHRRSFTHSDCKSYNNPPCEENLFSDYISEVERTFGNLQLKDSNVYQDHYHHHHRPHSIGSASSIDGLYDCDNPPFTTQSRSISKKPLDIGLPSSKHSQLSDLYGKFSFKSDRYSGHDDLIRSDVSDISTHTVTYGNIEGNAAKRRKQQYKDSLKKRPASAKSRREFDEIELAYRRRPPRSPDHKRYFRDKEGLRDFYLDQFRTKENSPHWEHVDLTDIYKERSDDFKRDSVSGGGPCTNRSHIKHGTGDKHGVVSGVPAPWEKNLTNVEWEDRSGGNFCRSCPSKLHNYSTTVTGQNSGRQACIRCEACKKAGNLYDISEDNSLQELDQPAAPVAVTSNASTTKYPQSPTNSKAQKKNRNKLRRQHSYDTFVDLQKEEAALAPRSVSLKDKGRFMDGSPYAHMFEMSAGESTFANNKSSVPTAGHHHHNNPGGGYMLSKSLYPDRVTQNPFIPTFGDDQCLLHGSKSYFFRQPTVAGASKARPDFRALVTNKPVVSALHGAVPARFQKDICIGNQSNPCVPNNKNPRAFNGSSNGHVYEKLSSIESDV
# Assay remarks: SAFETYScan Ion Channel, Blocker
# Condition info: read-out: RC50 (IC50)
Value kind: IC50

Ask | Fill in: IC50 of C[C@H]1C[C@@H](O)CN(c2ncc(Cl)c(Nc3ccc4c(c3)c3c(c(=O)n4C)OCC(F)(F)[C@H](C4CC4)N3)n2)C1 [12a CCT373566] is ___
Reply | > 10 µM

###

# System under test: CHRM1 (Homo sapiens, UniProt P11229)
# Sequence (P11229 1-460): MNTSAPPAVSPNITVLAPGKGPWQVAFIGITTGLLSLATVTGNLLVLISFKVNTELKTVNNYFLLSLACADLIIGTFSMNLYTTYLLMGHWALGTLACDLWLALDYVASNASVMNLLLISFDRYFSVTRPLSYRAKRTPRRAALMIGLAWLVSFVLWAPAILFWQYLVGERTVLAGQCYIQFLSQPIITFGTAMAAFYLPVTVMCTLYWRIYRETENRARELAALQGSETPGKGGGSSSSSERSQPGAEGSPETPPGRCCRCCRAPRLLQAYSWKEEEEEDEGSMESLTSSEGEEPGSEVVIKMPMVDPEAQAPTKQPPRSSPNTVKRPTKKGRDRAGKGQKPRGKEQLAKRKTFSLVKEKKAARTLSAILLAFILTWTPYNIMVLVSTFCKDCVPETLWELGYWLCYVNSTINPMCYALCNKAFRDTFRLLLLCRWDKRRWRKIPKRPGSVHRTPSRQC
# Assay remarks: SAFETYScan GPCR Calcium Flux, Antagonist
# Condition info: read-out: RC50 (IC50)
Value kind: IC50

Ask | Record lookup: for CHRM1 (Homo sapiens, UniProt P11229), what IC50 belongs to C[C@H]1C[C@@H](O)CN(c2ncc(Cl)c(Nc3ccc4c(c3)c3c(c(=O)n4C)OCC(F)(F)[C@H](C4CC4)N3)n2)C1 [12a CCT373566] ?
Reply | > 10 µM

From: paper PMC9234961
